# Tested on: Gal4S(b1-4)GlcNAc
# Method notes: glycan array binding signal (z-score within array); higher = stronger binding
# Settings: glycan notation: IUPAC condensed, linker removed
Many of the other results were omitted from the sample, so the strongest signals are more common in it than they were.
Parameter glycan array binding signal (z-score): see the listing below.

>  <Binder>
PEB3 Cj0289c (Campylobacter jejuni), Q9PIK7 (protein) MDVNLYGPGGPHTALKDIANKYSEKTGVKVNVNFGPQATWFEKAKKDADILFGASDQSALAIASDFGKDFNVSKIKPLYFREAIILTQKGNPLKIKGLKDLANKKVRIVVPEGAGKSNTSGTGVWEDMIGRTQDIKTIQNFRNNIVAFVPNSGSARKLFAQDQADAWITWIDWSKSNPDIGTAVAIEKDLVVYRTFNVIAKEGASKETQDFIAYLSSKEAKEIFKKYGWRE

>  <glycan array binding signal (z-score)>
0.039

$$$$
>  <Binder>
LecB PA7 (Pseudomonas aeruginosa) (protein) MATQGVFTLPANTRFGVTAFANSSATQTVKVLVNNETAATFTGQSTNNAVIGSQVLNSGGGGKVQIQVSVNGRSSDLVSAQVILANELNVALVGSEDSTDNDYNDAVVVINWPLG

>  <glycan array binding signal (z-score)>
-0.478

$$$$
>  <Binder>
BabA (Helicobacter pylori), O52269_HELPY (protein) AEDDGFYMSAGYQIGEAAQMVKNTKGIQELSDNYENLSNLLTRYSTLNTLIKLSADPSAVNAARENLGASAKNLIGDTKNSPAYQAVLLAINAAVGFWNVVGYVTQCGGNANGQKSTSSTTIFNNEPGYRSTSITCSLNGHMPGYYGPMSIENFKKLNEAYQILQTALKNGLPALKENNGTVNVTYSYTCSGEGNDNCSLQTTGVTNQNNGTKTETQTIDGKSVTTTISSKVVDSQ

>  <glycan array binding signal (z-score)>
0.875

$$$$
